Reference for the values: the supplement of paper PMC10567573

B1: CPXM2 (parent)
chain: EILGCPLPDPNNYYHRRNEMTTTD

# Variants of: B1
# experiment description: protein stability index of a GFP-peptide fusion (GPS, HEK-293T) (PSI 1-6); higher = more stable;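 note: lentivirally expressed fusions sorted by FACS into six bins by GFP to DsRed ratio, PSI derived from sequencing read proportions per bin multiplied by bin number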
# measurement setup: c terminus: a fixed tail appended
measurement kind: protein stability index

polymer_sequence="EILGCPLPDPNNYYHRRMEMTTTD [N18M]" measurement_kind="protein stability index" reported_value=2.91
polymer_sequence="VILGCPLPDPNNYYHRRNEMTTTD [E1V]" measurement_kind="protein stability index" reported_value=2.4
polymer_sequence="EILGCPLPDLNNYYHRRNEMTTTD [P10L]" measurement_kind="protein stability index" reported_value=2.8
polymer_sequence="EILGMPLPDPNNYYHRRNEMTTTD [C5M]" measurement_kind="protein stability index" reported_value=3.83
polymer_sequence="EILGCPLPDMNNYYHRRNEMTTTD [P10M]" measurement_kind="protein stability index" reported_value=3.44

Now for the variant whose protein stability index we want.
Problem: Entry under review: EILGCPLPDPNNYYHRRNEMPTTD [T21P] . Reported protein stability index?
Solution: 3.08
